Numbers sourced from PubChem BioAssay AID624414.

target_entity: Mucolipin-1 (Homo sapiens)
assay_procedure: qHTS for Agonists of the Human Mucolipin Transient Receptor Potential 1 (TRPML1)
run_conditions: TRPML1-expressing cells, Ca2+ dye fluorescence, FDSS
About 480 (0.12%) of roughly 410,000 compounds were called active. No stated cut-off is given here; in the data, active means activation above about 50%; inconclusive means mostly about 30% to 49%; inactive means weaker than that. Many of the other results were omitted from the sample, so actives are more common in it than they were.
API: response.call in 1 (yes) = active, 0 (no) = inactive

Hi team, can someone confirm the assay call for `COc1ccc(/C=C(/NC(=O)c2ccc(C)cc2)c2nc3ccccc3[nH]2)cc1OC` ? 1 (yes)

Hi team, can someone confirm the assay call for `O=C(Nc1ccccc1)c1ccccc1OCc1ccccc1` ? 0 (no)

Hi team, can someone confirm the assay call for `Cc1ccc(C=O)cc1Cl` ? 0 (no)

Hi team, can someone confirm the assay call for NC(=O)c1ccc(NC(=O)COC(=O)C(Cc2ccccc2)NC(=O)c2ccccc2)cc1 (stereo not drawn) ? 0 (no)

Hi team, can someone confirm the assay call for O=C(O)C1=C/C(=C/C=[N+]2c3cc(O)c(O[C@H]4OC(CO)[C@@H](O)[C@@H](O)[C@@H]4O)cc3C[C@@H]2C(=O)[O-])C[C@H](C(=O)O)N1 (stereo partly drawn) ? 0 (no)

Hi team, can someone confirm the assay call for CCCOc1ccc(C2c3c(-c4ccccc4O)n[nH]c3C(=O)N2Cc2cccnc2)cc1 (stereo not drawn) ? 0 (no)

Hi team, can someone confirm the assay call for Oc1ccc(Cl)cc1C1C=C(c2ccc3c(c2)OCO3)NC(c2c(F)cccc2Cl)N1 (stereo not drawn) ? 0 (no)

Hi team, can someone confirm the assay call for `CCOc1ccc2oc(=O)cc(CN3CCN(C(=O)c4ccc(F)cc4)CC3)c2c1` ? 0 (no)

Hi team, can someone confirm the assay call for `COc1ccc(Cl)cc1NC(=O)c1sc2nc3c(cc2c1N)CN(C)CC3` ? 0 (no)

Hi team, can someone confirm the assay call for `CSc1n[nH]c(-c2ccco2)n1` ? 0 (no)

Hi team, can someone confirm the assay call for `COc1cc2nc(N3CCCN(C)CC3)nc(NC3CC3)c2cc1OC` ? 0 (no)

Hi team, can someone confirm the assay call for `NC(=O)c1ccc(NC(=O)COC(=O)c2c3c(nc4ccccc24)/C(=C\c2ccc4c(c2)OCO4)CCC3)cc1` ? 1 (yes)

Hi team, can someone confirm the assay call for `CCCc1cc(=O)n2[nH]c(NCc3ccc(CC)cc3)nc2n1` ? 0 (no)

Hi team, can someone confirm the assay call for `O=C(/C=C(O)/C=C/c1ccc(O)cc1)/C=C/c1ccc(O)cc1` ? 1 (yes)

Hi team, can someone confirm the assay call for COc1ccc(-c2ccc(C3C4C=CCCC4(C)C(=O)N3Cc3ccccc3)c(F)c2)cc1OC (stereo not drawn) ? 0 (no)

Hi team, can someone confirm the assay call for `Nc1nc(N)c(N=O)c(N)n1` ? 0 (no)

Hi team, can someone confirm the assay call for `COc1cc(NS(=O)(=O)c2cccs2)cc(OC)c1` ? 0 (no)

Hi team, can someone confirm the assay call for `CCOC(=O)CNC(=O)c1cc2c(=O)n3cccc(C)c3nc2s1` ? 0 (no)

Hi team, can someone confirm the assay call for `COc1cc([N+](=O)[O-])ccc1NC(=S)N1CCN(c2ccccn2)CC1` ? 0 (no)

Hi team, can someone confirm the assay call for `CN(CC(=O)Nc1ccc(C(N)=O)cc1)S(=O)(=O)c1ccc2c(c1)OCCO2` ? 0 (no)

Hi team, can someone confirm the assay call for `COc1ccc(NC(=O)c2sc3nc(C)nc(N4CCN(c5ccccn5)CC4)c3c2C)c(OC)c1` ? 1 (yes)

Hi team, can someone confirm the assay call for `CCCCSc1ncnc2c1sc1nc(N3CCOCC3)c3c(c12)CCCC3` ? 0 (no)

Hi team, can someone confirm the assay call for `CN(CC(=O)Nc1ccc(F)cc1)CC(=O)N1CCCCC1` ? 0 (no)

Hi team, can someone confirm the assay call for `CC(=O)c1ccc(NS(=O)(=O)c2ccc(-c3cc(C)no3)s2)cc1` ? 0 (no)

Hi team, can someone confirm the assay call for `O=C(Cc1ccc(Cl)cc1)Nc1ccc2nn(-c3ccc(Cl)cc3)nc2c1` ? 0 (no)

Hi team, can someone confirm the assay call for `O=C1C[C@H]2C=CCc3cccc(c32)CN1Cc1ccccc1` ? 0 (no)

Hi team, can someone confirm the assay call for `COc1ccc(-c2cc(C(=O)Nc3sc4c(c3C(N)=O)CCCC4)no2)cc1` ? 0 (no)

Hi team, can someone confirm the assay call for `C(=Nc1ccc(/C=C/c2ccnc3ccccc23)cc1)c1cc2c3c(c1)CCCN3CCC2` ? 0 (no)

Hi team, can someone confirm the assay call for `CN1C(=O)c2cccc3c(N)ccc(c23)C1=O` ? 1 (yes)

Hi team, can someone confirm the assay call for `O=[N+]([O-])c1ccc(/C=C/c2ccc3cccnc3c2)cc1` ? 0 (no)

Hi team, can someone confirm the assay call for `Cc1nc(N2CCN(c3ccccn3)CC2)c2c(C)c(C(=O)Nc3ccc(F)c(Cl)c3)sc2n1` ? 0 (no)

Hi team, can someone confirm the assay call for `CCN(CC)c1ccc(/C=C/c2c(C)cnc3ccc(C)cc23)cc1` ? 0 (no)

Hi team, can someone confirm the assay call for `CC1(C)CC(=O)c2cc(C(=O)NCc3ccccc3)c(=O)[nH]c2C1` ? 0 (no)

Hi team, can someone confirm the assay call for CC(OC(=O)Cc1ccc(F)cc1)C(=O)N1CCc2ccccc21 (stereo not drawn) ? 0 (no)

Hi team, can someone confirm the assay call for `CCOc1ccc(/C=C(\C#N)c2nc3ccccc3c(=O)[nH]2)cc1OC` ? 0 (no)

Hi team, can someone confirm the assay call for `CCCN(CCC)c1nc2c(C)cccn2c(=O)c1/C=C1/SC(=S)N(Cc2ccco2)C1=O` ? 0 (no)

Hi team, can someone confirm the assay call for `CCOc1ccccc1NC(=O)Cn1nnc(C(=O)Nc2ccc(C)c(C)c2)c1N` ? 0 (no)

Hi team, can someone confirm the assay call for `CCc1ccc(CNCc2c(C(=O)O)n(Cc3ccc(F)cc3Cl)c3cc(OC)ccc23)cc1` ? 0 (no)

Hi team, can someone confirm the assay call for `O=C(Nc1ccc(Cl)cc1)c1cnn2c1NC(=C1CC1)C=C2C(F)F` ? 0 (no)

Hi team, can someone confirm the assay call for `C(=Nc1ccc(/C=C/c2ccnc3ccccc23)cc1)Nc1ccc(/C=C/c2ccnc3ccccc23)cc1` ? 0 (no)

Hi team, can someone confirm the assay call for `O=C(C[n+]1ccncc1)c1ccc2c(c1)CCCC2` ? 0 (no)

Hi team, can someone confirm the assay call for `COc1ccc(/C=C/c2ccccn2)cc1OC` ? 0 (no)

Hi team, can someone confirm the assay call for `Cc1ccc2nc(CNC(=O)c3ccccc3)[nH]c2c1` ? 0 (no)
